meta.source: ChEMBL document CHEMBL1781909

target: Metabotropic glutamate receptor 5 (Rattus norvegicus, UniProt P31424)
Sequence (P31424 whole entry): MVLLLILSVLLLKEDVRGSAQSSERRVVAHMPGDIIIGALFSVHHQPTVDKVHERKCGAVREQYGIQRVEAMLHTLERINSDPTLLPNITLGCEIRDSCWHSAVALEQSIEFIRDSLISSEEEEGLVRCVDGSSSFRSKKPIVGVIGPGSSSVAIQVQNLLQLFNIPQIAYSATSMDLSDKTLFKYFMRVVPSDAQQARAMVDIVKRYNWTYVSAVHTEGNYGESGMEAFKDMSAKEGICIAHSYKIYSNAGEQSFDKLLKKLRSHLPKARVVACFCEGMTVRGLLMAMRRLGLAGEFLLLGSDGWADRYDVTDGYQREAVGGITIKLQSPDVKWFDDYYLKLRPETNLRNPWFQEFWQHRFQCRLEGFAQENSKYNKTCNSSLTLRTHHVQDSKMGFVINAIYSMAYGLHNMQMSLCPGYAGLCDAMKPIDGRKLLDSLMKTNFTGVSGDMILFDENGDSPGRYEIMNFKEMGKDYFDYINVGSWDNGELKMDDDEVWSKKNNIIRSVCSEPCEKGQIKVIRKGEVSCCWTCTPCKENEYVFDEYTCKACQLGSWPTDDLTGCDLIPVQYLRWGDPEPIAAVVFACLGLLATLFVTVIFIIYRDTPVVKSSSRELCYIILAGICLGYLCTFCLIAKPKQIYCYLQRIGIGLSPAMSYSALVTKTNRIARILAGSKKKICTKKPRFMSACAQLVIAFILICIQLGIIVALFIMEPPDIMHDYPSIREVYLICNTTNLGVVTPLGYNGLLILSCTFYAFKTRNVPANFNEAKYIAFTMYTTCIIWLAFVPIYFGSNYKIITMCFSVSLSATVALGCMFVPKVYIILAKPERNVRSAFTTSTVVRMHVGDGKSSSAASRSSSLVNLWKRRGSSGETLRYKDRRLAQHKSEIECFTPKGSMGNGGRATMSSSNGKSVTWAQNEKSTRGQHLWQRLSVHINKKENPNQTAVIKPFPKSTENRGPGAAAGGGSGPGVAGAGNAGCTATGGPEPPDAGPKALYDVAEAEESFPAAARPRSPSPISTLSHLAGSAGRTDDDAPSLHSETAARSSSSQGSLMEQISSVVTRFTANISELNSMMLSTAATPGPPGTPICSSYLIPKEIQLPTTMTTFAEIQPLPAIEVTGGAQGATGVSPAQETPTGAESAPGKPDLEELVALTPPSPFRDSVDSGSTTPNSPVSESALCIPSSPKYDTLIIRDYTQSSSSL
assaySummary: Antagonist activity at rat mGluR5 expressed in human HEK-293 cells assessed as inhibition of glutamate-induced intracellular calcium mobilization
pIC50: −log10 of the molar value.
valueKind: pIC50

Form field: reported pIC50 of "Cc1cccc(C#Cc2cc(Cl)cc(C#N)c2)n1" 8.91

Form field: reported pIC50 of "Cc1ccc(C#Cc2cc(F)cc(C#N)c2)nc1" 9.49

Form field: reported pIC50 of "Cc1nc(C#Cc2cc(Br)cc(Br)c2)cs1" 8.84

Form field: reported pIC50 of "Cc1cccc(C#Cc2cc(C#N)cc([N+](=O)[O-])c2)n1" 8.43

Form field: reported pIC50 of "O=[N+]([O-])c1cc(F)cc(C#Cc2ccccn2)c1" 9.18

P = Cc1nc(C#Cc2cc(Cl)cc(C#N)c2)cs1
Q = N#Cc1cc(Cl)cc(C#Cc2ccccn2)c1
R = Cc1nc(C#Cc2cc(C#N)cc([N+](=O)[O-])c2)cs1
S = Cc1cccc(C#Cc2cc(Br)cc([N+](=O)[O-])c2)n1
I would appreciate it if you could sort these 4 molecules by pIC50, starting from the smallest number. The response must list the labels following the requested ordering. R, P, Q, S
(R: 8.58, P: 8.79, Q: 8.99, S: 9.20)

A = O=[N+]([O-])c1cc(I)cc(C#Cc2ccccn2)c1
B = Cc1nc(C#Cc2cc(I)cc(C#N)c2)cs1
Quick check, higher pIC50 between A and B ? Please respond with the label that marks your chosen entry. B

---

target: UniProtKB P31424
pKi: −log10 of the molar value.
valueKind: pKi

Here is how some molecules turned out for pKi.
Form field: reported pKi of "Cc1nc(C#Cc2cc(F)cc(Br)c2)cs1" 8.97

Form field: reported pKi of "Cc1nc(C#Cc2cc(Br)cc([N+](=O)[O-])c2)cs1" 9.03

A = Cc1nc(C#Cc2cc(Br)cc(Br)c2)cs1
B = Cc1nc(C#Cc2cc(I)cc([N+](=O)[O-])c2)cs1
When the recorded pKi values are compared, which is smaller: that of A or that of B ? Please respond with the label that marks your chosen entry. B

---

target: Metabotropic glutamate receptor 5 (Rattus norvegicus)
assaySummary: Antagonist activity at rat mGluR5 expressed in human HEK-293 cells assessed as inhibition of glutamate-induced intracellular calcium mobilization
pIC50: −log10 of the molar value.
valueKind: pIC50

Here is how some molecules turned out for pIC50.
Form field: reported pIC50 of "Cc1nc(C#Cc2cc(F)cc(C#N)c2)cs1" 8.72

Form field: reported pIC50 of "Cc1nc(C#Cc2cc(F)cc([N+](=O)[O-])c2)cs1" 9.21

Form field: reported pIC50 of "N#Cc1cc(I)cc(C#Cc2ccccn2)c1" 9.18

Form field: reported pIC50 of "Cc1ccc(C#Cc2cc(C#N)cc([N+](=O)[O-])c2)nc1" 8.58

Form field: reported pIC50 of "Cc1nc(C#Cc2cc(I)cc([N+](=O)[O-])c2)cs1" 8.76

Form field: reported pIC50 of "Cc1ccc(C#Cc2cc(Br)cc([N+](=O)[O-])c2)nc1" 8.13

I = Cc1nc(C#Cc2cc(Br)cc([N+](=O)[O-])c2)cs1
II = O=[N+]([O-])c1cc(Br)cc(C#Cc2ccccn2)c1
Quick check, higher pIC50 between I and II ? Please respond with the label that marks your chosen entry. II
(II: 9.41, I: 9.14)

A = Cc1nc(C#Cc2cc(F)cc(Br)c2)cs1
B = Cc1cccc(C#Cc2cc(I)cc(C#N)c2)n1
Quick check, higher pIC50 between A and B ? Please respond with the label that marks your chosen entry. B

---

target: UniProt P31424
assaySummary: Antagonist activity at rat mGluR5 expressed in human HEK-293 cells assessed as inhibition of glutamate-induced intracellular calcium mobilization
pIC50: −log10 of the molar value.
valueKind: pIC50

Form field: reported pIC50 of "Cc1ccc(C#Cc2cc(Cl)cc(C#N)c2)nc1" 8.91

Form field: reported pIC50 of "Cc1ccc(C#Cc2cc(Br)cc(C#N)c2)nc1" 8.99

Form field: reported pIC50 of "N#Cc1cc(C#Cc2ccccn2)cc([N+](=O)[O-])c1" 8.88
